- experimental_target: Insulin receptor (Homo sapiens) (UniProt P06213)
- Sequence (P06213 28-758 limits assumed): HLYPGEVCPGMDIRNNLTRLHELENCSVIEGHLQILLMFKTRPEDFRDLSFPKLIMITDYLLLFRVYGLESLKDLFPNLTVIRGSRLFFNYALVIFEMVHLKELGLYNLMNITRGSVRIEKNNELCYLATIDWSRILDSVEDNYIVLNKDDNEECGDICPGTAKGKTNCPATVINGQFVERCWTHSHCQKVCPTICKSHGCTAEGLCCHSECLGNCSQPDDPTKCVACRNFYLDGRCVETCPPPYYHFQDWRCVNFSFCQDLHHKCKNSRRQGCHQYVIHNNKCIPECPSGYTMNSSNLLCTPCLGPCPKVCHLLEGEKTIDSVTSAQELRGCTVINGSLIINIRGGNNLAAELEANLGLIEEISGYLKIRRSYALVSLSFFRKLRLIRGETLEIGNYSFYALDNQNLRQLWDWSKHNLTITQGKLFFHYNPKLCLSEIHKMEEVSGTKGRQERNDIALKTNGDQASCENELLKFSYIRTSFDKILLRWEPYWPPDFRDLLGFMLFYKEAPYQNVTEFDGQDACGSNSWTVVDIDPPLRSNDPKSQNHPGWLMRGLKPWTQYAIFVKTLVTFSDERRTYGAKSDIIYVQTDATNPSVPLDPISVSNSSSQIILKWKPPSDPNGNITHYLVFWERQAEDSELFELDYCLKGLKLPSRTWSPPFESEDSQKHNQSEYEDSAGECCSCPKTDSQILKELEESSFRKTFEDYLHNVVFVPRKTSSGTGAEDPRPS
- Sequence (P06213 763-1382 limits assumed): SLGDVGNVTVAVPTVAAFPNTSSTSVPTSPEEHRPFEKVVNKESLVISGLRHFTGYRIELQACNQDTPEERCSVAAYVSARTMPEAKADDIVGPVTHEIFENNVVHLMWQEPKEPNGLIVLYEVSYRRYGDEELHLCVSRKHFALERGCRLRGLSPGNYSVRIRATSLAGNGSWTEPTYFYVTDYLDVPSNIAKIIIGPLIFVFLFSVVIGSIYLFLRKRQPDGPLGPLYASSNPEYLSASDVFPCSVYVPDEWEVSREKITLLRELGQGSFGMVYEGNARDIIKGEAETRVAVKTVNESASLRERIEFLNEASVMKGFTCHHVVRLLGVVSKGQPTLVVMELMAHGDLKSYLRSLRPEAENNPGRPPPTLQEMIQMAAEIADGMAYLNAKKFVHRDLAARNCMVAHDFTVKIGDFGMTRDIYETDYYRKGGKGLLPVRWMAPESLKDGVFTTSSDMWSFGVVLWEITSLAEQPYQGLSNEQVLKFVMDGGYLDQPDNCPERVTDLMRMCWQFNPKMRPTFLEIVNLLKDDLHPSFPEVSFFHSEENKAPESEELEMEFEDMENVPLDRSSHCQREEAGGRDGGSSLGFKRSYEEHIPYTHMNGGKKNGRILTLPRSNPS
- assay: Ability to activate the insulin receptor compared to that of lead structure 1 expressed as X/1
Returns one of TRUE or FALSE; TRUE when Relative activity is >= 0.03.

[[record]]
compound = "C=CC(C)(C)c1[nH]c2ccccc2c1C1=C(O)C(O)=C(c2c[nH]c3c(CC(O)C(C)(C)O)cccc23)C(=O)C1=O (configuration not stated)"
experimental_target = "Insulin receptor (Homo sapiens) (UniProt P06213)"
category = "TRUE"

[[record]]
compound = "C=CC(C)(C)c1[nH]c2ccccc2c1C1=C(O)C(O)=C(c2c[nH]c3c(CC=C(C)C)cccc23)C(=O)C1=O"
experimental_target = "Insulin receptor (Homo sapiens) (UniProt P06213)"
category = "TRUE"

[[record]]
compound = "C=CC(C)(C)c1[nH]c2ccccc2c1C1=C(OS(=O)(=O)C(F)(F)F)C(=O)C(c2c[nH]c3c(CC=C(C)C)cccc23)=C(N)C1=O"
experimental_target = "Insulin receptor (Homo sapiens) (UniProt P06213)"
category = "FALSE"

[[record]]
compound = "C=CC(C)(C)c1[nH]c2ccccc2c1C1=C(OC)C(=O)C(c2c[nH]c3c(CC=C(C)C)cccc23)=C(O)C1=O"
experimental_target = "Insulin receptor (Homo sapiens) (UniProt P06213)"
category = "TRUE"

[[record]]
compound = "C=CC(C)(C)c1[nH]c2ccccc2c1C1=C(O)C(O)=C(c2cn(C)c3c(CC=C(C)C)cccc23)C(=O)C1=O"
experimental_target = "Insulin receptor (Homo sapiens) (UniProt P06213)"
category = "TRUE"

[[record]]
compound = "CCC(C)(C)c1[nH]c2ccccc2c1C1=C(O)C(O)=C(c2c[nH]c3c(CCC(C)C)cccc23)C(=O)C1=O"
experimental_target = "Insulin receptor (Homo sapiens) (UniProt P06213)"
category = "TRUE"

[[record]]
compound = "C=CC(C)(C)c1[nH]c2ccccc2c1C1=C(O)C(O)=C(c2c[nH]c3c(CCC(C)(C)O)cccc23)C(=O)C1=O"
experimental_target = "Insulin receptor (Homo sapiens) (UniProt P06213)"
category = "TRUE"

[[record]]
compound = "C=CC(C)(C)c1c(C2=C(O)C(O)=C(c3c[nH]c4c(CCC(C)(C)O)cccc34)C(=O)C2=O)c2ccccc2n1C"
experimental_target = "Insulin receptor (Homo sapiens) (UniProt P06213)"
category = "TRUE"

[[record]]
compound = "CCC(C)(C)c1[nH]c2ccccc2c1C1=C(O)C(O)=C(c2c[nH]c3c(CC=C(C)C)cccc23)C(=O)C1=O"
experimental_target = "Insulin receptor (Homo sapiens) (UniProt P06213)"
category = "TRUE"

[[record]]
compound = "C=CC(C)(C)c1[nH]c2ccccc2c1C1=C(O)C(=N\\C)/C(c2c[nH]c3c(CC=C(C)C)cccc23)=C(O)C/1=N/C"
experimental_target = "Insulin receptor (Homo sapiens) (UniProt P06213)"
category = "FALSE"


These entries and their values trace back to ChEMBL document CHEMBL1132897.
